- Tgt: Chitinase B (Serratia marcescens)
- Sequence (P11797 whole entry): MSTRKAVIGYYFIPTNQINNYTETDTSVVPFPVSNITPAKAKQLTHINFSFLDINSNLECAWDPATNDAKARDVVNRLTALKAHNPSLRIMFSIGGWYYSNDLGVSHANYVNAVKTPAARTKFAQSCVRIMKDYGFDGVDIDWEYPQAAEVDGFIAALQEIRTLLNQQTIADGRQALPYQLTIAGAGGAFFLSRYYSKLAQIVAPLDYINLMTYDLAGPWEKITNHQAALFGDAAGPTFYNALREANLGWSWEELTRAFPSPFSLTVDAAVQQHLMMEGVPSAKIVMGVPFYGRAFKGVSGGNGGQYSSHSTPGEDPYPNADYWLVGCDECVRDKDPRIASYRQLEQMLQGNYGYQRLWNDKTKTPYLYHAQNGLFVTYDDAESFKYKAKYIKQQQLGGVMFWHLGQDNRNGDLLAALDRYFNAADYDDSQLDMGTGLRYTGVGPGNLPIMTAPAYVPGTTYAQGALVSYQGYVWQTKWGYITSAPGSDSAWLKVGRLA
*1 amine or outer side, *2 acyl side, *3 side chain or, on linkers, in order; H or OH if unused. Where a SMILES comes first, the peptide text is derived from it. Side-chain parts run from the residue outwards. [ ]: non-standard residue; d: D form. The star is where a group is joined. NMeF = CN[C@@H](Cc1ccccc1)C(=O)O; CO = O=C([*:1])[*:2]; OAll = C=CCO*
Exercise: for every item that follows, state its recorded pIC50.
Give bare numbers, as −log10 of the molar value.

Consider the following illustrative entries.
pIC50 measured on "C=CCOC(=O)C[C@H](NC(=O)[C@H](Cc1ccccc1)N(C)C(=O)[C@H](CCCN=C(N)NC(=O)NC)NC(=O)[C@@H](C)NC(=O)[C@H](CC(=O)O)NC(C)=O)C(=O)O" = 6.00

pIC50 measured on C=CCOC(=O)C[C@H](NC(=O)[C@H](Cc1ccccc1)N(C)C(=O)[C@H](CCCNC(=N)NC(=O)NC)NC(C)=O)C(=O)O (Ac-Arg([CO-NHMe])-[NMeF]-Asp(OAll)-OH) = 6.89

pIC50 measured on CNC(=O)NC(=N)NCCC[C@@H]1NC(=O)[C@@H](C)NC(=O)C[C@@H](C(=O)O)NC(=O)C[C@@H](C(=O)O)NC(=O)[C@H](Cc2ccccc2)N(C)C1=O [ARGIFIN] = 5.19

pIC50 measured on "CNC(=O)NC(N)=NCCC[C@H](NC(=O)[C@@H](C)NC(C)=O)C(=O)O" = 4.19

Further cases:
pIC50 measured on "CNC(=O)NC(N)=NCCC[C@H](NC(=O)[C@@H](C)NC(=O)[C@H](CC(=O)O)NC(C)=O)C(=O)O" = 3.96

###

Exercise: for every item that follows, state its recorded IC50.
- Tgt: Chitinase B (Serratia marcescens, UniProt P11797)
- Sequence (P11797 whole entry): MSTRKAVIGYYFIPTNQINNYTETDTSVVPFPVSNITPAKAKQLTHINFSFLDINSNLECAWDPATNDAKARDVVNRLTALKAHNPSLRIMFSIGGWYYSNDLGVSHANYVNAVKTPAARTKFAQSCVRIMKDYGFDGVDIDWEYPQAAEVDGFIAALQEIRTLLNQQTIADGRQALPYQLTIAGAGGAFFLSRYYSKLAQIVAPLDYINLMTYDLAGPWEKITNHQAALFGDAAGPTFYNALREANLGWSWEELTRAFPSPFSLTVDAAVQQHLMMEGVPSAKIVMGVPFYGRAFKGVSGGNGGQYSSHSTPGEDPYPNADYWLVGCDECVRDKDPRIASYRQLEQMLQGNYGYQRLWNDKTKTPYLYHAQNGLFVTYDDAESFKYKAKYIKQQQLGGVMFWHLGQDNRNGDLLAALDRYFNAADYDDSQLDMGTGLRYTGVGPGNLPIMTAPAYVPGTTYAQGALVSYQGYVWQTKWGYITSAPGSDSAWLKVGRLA
Answers are plain numbers, in µM.

IC50 measured on "CNC(=O)NC(=N)NCCC[C@H](NC(=O)[C@@H](C)NC(C)=O)C(=O)N(C)[C@@H](Cc1ccccc1)C(=O)O" = 2.7

# per-item lookup of IC50; items listed below
1. CNC(=O)NC(=N)NCCC[C@H](NC(=O)[C@@H](C)NC(=O)[C@H](CC(=O)O)NC(C)=O)C(=O)N(C)[C@@H](Cc1ccccc1)C(=O)O
2. C=CCOC(=O)C[C@H](NC(=O)[C@H](Cc1ccccc1)N(C)C(=O)[C@H](CCCNC(=N)NC(=O)NC)NC(=O)[C@@H](C)NC(C)=O)C(=O)O

1. 30
2. 0.091
